Tested on: U2OS
Assay: Incucyte cell viability with U2OS; also: unitless GR value; below 1 slowed growth and below 0 cell loss
Type: toxicity, cell-based
Conditions: human, 6 h, 10 µM, compound concentration 10 uM, replicate number 1
List of Growth Rate values.
RESULT TYPE: Growth Rate

1. O=C1NC(=NCc2cccs2)SC1=Cc1ccc2ncccc2c1	0.68
2. Cc1nnc2n1-c1sc3c(c1C(c1ccccc1Cl)=NC2)C[C@H](C(=O)N1CCOCC1)C3	0.8
3. CCOC(=O)c1cc2cc(-c3cc(C(=O)NCc4ccc(C(=O)O)cc4)nn3C)ccc2[nH]1 [BI 4394]	0.74
4. NC(=O)c1ccc(-c2nc(-c3ccc4c(c3)OCO4)c(-c3ccccn3)[nH]2)cc1.O	0.96
5. O=C(NCCN1CCOCC1)c1ccc2nn(CCOc3ccc(Cl)cc3)cc2c1	0.71
6. Cc1csc(-c2nnc(Nc3ccc(Oc4ncccc4-c4ccnc(N)n4)cc3)c3ccccc23)c1 [AMG-900]	0.79
7. O=C(O)CCn1c2c(c3ccccc31)C[C@H](NS(=O)(=O)c1ccc(F)cc1)CC2 [RAMATROBAN]	0.88
8. CC1(C)CCC(CN2CCN(c3ccc(C(=O)NS(=O)(=O)c4ccc(NCC5CCOCC5)c([N+](=O)[O-])c4)c(Oc4cnc5[nH]ccc5c4)c3)CC2)=C(c2ccc(Cl)cc2)C1 [VENETOCLAX]	0.5
9. CC(C)(C#Cc1ccc(NC(=O)COc2ccccc2C(=O)c2ccccc2)c(Cl)c1)C(=O)O [BI 2439]	1
10. Cn1c(C2(NC(=O)c3ccc4c(C5CCCC5)c(-c5ncc(Br)cn5)n(C)c4c3)CCC2)nc2ccc(/C=C/C(=O)O)cc21 [DELEOBUVIR]	0.31
11. Cc1ccc(NC(=O)c2ccc3cnccc3c2)cc1C(=O)Nc1cnc(Nc2cccc(NC3CCN(C(=O)/C=C/CN(C)C)CC3)c2)nc1	-0.26
12. CC(C)n1cnc2c(Nc3cccc(Cl)c3)nc(N[C@H]3CCCC[C@@H]3N)nc21	0.85
13. CC(C=CC1=C(C)CCCC1(C)C)=CC=CC(C)=CC(=O)O	0.77
14. Cc1cn([C@H](C)CC#N)c(=O)c2cc(Cn3nc(C(F)F)cc3Cl)nn12	0.38
15. Cl.Cl.O=[N+]([O-])c1ccc(CN2CCOCCOCCN(Cc3ccc([N+](=O)[O-])cc3)CCOCC2)cc1	-0.05
16. Cn1cc(-c2ccc3occ(-c4cccc(-c5ccncc5)c4)c3n2)cn1	-0.24
17. CCc1nc(C2CCC2)n2nc(-c3ccccc3)[nH]c(=O)c12	0.84

* * *

List of Growth Rate values.
Test system: U2OS
Assay: Incucyte cell viability with U2OS; also: unitless GR value; below 1 slowed growth and below 0 cell loss
Format: toxicity, cell-based
Conditions: human, 0 h, 10 µM, compound concentration 10 uM, replicate number 2
RESULT TYPE: Growth Rate

1) CS(=O)(=O)O.C[C@H](NC(=O)c1cnc2n1[C@](C)(Cc1ccc(C#N)cc1)C(=O)N2c1cc(Cl)c(F)c(Cl)c1)C(=O)NC1(c2ccccn2)CC1	-0.46
2) CN[C@@H](C)C(=O)N[C@H]1CN(C(=O)CC(C)C)CC[C@H]2CC[C@@H](C(=O)NC(c3ccccc3)c3ccccc3)N2C1=O	0.1
3) CC1(C)CCC[C@]2(C)[C@@H](C=O)C(C=O)=CC[C@@H]12	-0.79
4) COc1ccc(F)c(F)c1C(=O)c1cnc(NC2CCN(S(C)(=O)=O)CC2)nc1N	0.68

* * *

List of Growth Rate values.
Tested on: Fibroblast
Test: Incucyte cell viability with human fibroblast; also: unitless GR value; below 1 slowed growth and below 0 cell loss
Format: toxicity, cell-based
Conditions: 0 h, 10 µM, compound concentration 10 uM, replicate number 2
RESULT TYPE: Growth Rate

1. CCOc1ccccc1C(=O)NCC1(N2CCN(CC)CC2)CCCCC1	-0.98
2. CSc1ccc(C(=O)/C=C/c2cc(C)c(OC(C)(C)C(=O)O)c(C)c2)cc1 [ELAFIBRANOR]	0.85
3. COc1cc2nc(C)nc(NC3(c4ccccc4)CC3)c2cc1OC	0.11
4. CCn1c(CNC(=O)c2nc(Cl)cnc2N)[n+](CC)c2ccc(C(=O)N(C)CCN(C)C)cc21.[Cl-]	-0.38
5. CN1C2CCCC1CC(Nc1ccccc1Br)C2 (configuration not stated)	0.67
6. CN1CC(=O)N(C)c2cnc(Nc3ccc(NC(=O)Nc4cccc(C(=O)O)c4)cc3)nc21	-0.25
7. N=C(N)NCCC[C@@H](NC(=O)C(c1ccccc1)c1ccccc1)C(=O)NCc1ccc(CNC(N)=O)cc1.O=C(O)C(F)(F)F	0.49
8. CC[C@@H](CO)Nc1nc(Nc2cccc(NC(=O)C(C)(C)C)c2)ncc1F	0.61
9. COc1cc(O)c(C(CC(=O)N2C[C@H](C)C[C@H](C)C2)c2ccc3c(c2)OCO3)c(OC)c1 (some centres not stated)	0.14
10. CCN1/C(=C/C(C)=O)Sc2ccc(OC(C)=O)cc21	0.08
11. CN(C(=O)c1cnn2cccnc12)c1cc2c(cc1N1CCOCC1)C(=O)N(C[C@@H](F)C(C)(C)O)C2	0.71
12. Cc1ncsc1-c1ccc(CNC(=O)[C@@H]2C[C@@H](O)CN2C(=O)[C@@H](NC(=O)CCCCNC(=O)c2ccc(-c3ccc(N4CCN(C)CC4)c(NC(=O)c4c[nH]c(=O)cc4C(F)(F)F)c3)cc2)C(C)(C)C)cc1	0.64
13. CC(=O)Nc1nc2c(Oc3cc(-c4ccc(C(F)(F)F)cc4)ncn3)cccc2s1 [AMG-517]	-1
14. CCC(=N\O)/C(C)=C/c1ccc(F)cc1 [A-079]	-0.47
15. CC(C)C[C@H](NC(=O)[C@@H](O)[C@H](N)Cc1ccccc1)C(=O)O [UBENIMEX]	-0.85
16. Cc1[nH]nc2ccc(-c3cncc(OCC(N)Cc4ccccc4)c3)cc12 (configuration not stated)	-0.26
17. Cl.O=C1c2cccc3c2[C@H](CCC3)CN1[C@@H]1CN2CCC1CC2 [PALONOSETRON HYDROCHLORIDE]	0.54
18. CC1(C)Cc2nc(C3CCCC3)c([C@@H](F)c3ccc(C(F)(F)F)cc3)c(C3CCCCC3)c2[C@@H](O)C1	-0.59
19. NS(=O)(=O)c1cncc(-c2nc(NCc3ccccn3)c3c(-c4ccccc4)cccc3n2)c1 [BMS-919373]	-0.92
20. O=C(Nc1snnc1C(=O)Nc1ccc(N2CCCC2)cc1)c1cncc(C(F)(F)F)c1	-0.64
21. Cc1ccc(S(=O)(=O)O)cc1.Cn1cc(Nc2nccc(N3CC4CCC(C3)N4C(=O)[C@@H]3CC3(F)F)n2)cn1	0.55
22. CCS(=O)(=O)Nc1cccc(Oc2cc(F)cc(Nc3ccc(I)cc3F)c2NS(=O)(=O)C2CC2)c1	0.69
23. C[C@@H]1CC[C@@]2(OC1)O[C@H]1[C@@H](O)[C@H]3[C@@H]4CC[C@H]5C[C@@H](O[C@@H]6O[C@H](CO)[C@H](O[C@@H]7O[C@H](CO)C(O)[C@H](O[C@@H]8OC[C@@H](O)[C@H](O)[C@H]8O)[C@H]7O[C@@H]7O[C@H](CO)[C@H](O)[C@H](O[C@@H]8O[C@H](CO)[C@@H](O)[C@H](O)[C@H]8O)[C@H]7O)[C@H](O)[C@H]6O)[C@H](O)C[C@]5(C)[C@H]4CC[C@]3(C)[C@H]1[C@@H]2C (some centres not stated) [DIGITONIN]	0.94
24. Cc1c(NC(=O)COc2ccc(Cl)cc2C(=O)c2cc(F)cc(C(F)(F)F)c2)ccc(C(=O)O)c1F [BI 2540]	-0.2
25. CCNC(=O)c1ccc2c(c1)NC(=O)/C2=C(\Nc1ccc(CN(C)C)cc1)c1ccccc1	0.87
26. O=C(O)CNC(=O)c1c(O)c2ccccc2n(Cc2ccccc2)c1=O	0.56
27. Cc1cccc(-c2nn(C(=S)Nc3ccccc3)cc2-c2ccnc3ccccc23)n1	-1
28. Cc1nccn1-c1ccc(Sc2cccc(C3(C(N)=O)CCOCC3)c2)cc1	0.46
29. CC(=O)c1ccc2c(c1)/C(=C(/Nc1cccc(C#N)c1)c1ccc3c(c1)OCCO3)C(=O)N2	-0.78
30. C[C@@]1(Cc2ccc(C#N)cc2)C(=O)N(c2cc(Cl)cc(Cl)c2)c2ncc(C(=O)NC3(c4nc(C5CCC5)no4)CC3)n21 [BI 9446]	-0.17
31. Cc1ccc(C(=O)Nc2cc(N3CCN(C)CC3)cc(C(F)(F)F)c2)cc1-n1cc(-c2cnn(C)c2C)nn1.Cl	0.61
32. CCn1c(-c2nonc2N)nc2cncc(C(=O)N3CC[C@H](N)C3)c21.Cl	-0.88

* * *

System: HEK-293T
Assay: Incucyte cell viability with HEK293T; also: unitless GR value; below 1 slowed growth and below 0 cell loss
Assay type: toxicity, cell-based
Settings: human, 24 h, 10 µM, compound concentration 10 uM, replicate number 2
RESULT TYPE: Growth Rate

1) CC(=O)Oc1ccc2c(c1)[C@@]1(C)CCC[C@](C)(C(=O)OC(=O)[C@@]3(C)CCC[C@]4(C)c5cc(OC(C)=O)ccc5CC[C@@H]34)[C@@H]1CC2 [ACETYL PODOCARPIC ACID ANHYDRIDE]	0.57
2) COc1cc(/C=C(\C#N)C(=O)Nc2nnc(C(F)(F)F)s2)ccc1OCc1ccc(C(F)(F)F)cc1C(F)(F)F	0.98
3) CN(C)C/C=C/C(=O)Nc1cc2c(Nc3ccc(F)c(Cl)c3)ncnc2cc1OC[C@@H]1CCCO1	-0.22
